tested on: LOX IMVI melanoma; assay: NCI tumour cell line growth inhibition, 48 h
result.type: GI50

Below, each entry is followed by its recorded GI50 result.
In [3]: df
Out[3]:
                                   compound  result_type   result
0  COC1CCC(n2c([C@@H]3CCCC(=O)N3c3ccc(F)c(F)c3)nc3cc(-c4c(C)noc4C)ccc32)CC1 (stereo not given in full)         GI50  4.13 µM
1  C=C(C(=O)OC)[C@@H]1C[C@@H](O)[C@]2(C)CC/C=C(\C)CCC[C@H](C)[C@H](O)C1O2         GI50  32.8 µM
2  C=C1CO[C@@H]2C[C@@H]1CCC1(C)OC1CC/C(C)=C/CC[C@@]2(C)O (stereo not given in full)         GI50  7.55 µM
3  COc1ccc2sc3c(NCCCNCCO)nc4ccccc4c3c(=O)c2c1         GI50  1.57 µM

Okay, now this compound:
Supply GI50 value. Item: CCOC(=O)c1cnc2c(cnn2CC)c1NN=C(C)C 35.3 µM

* * *

test system: IGROV1 ovarian; assay: NCI tumour cell line growth inhibition, 48 h
result.type: TGI

As a guide, the following entries are already answered.
>>> print(df.to_string())
                                   compound  result_type    result
0  NC(=S)N/N=C(\C(=O)Nc1ccc(Cl)c(Cl)c1)C1=NN(c2ccccc2)C(c2cccc([N+](=O)[O-])c2)CC1=O (stereo unspecified)          TGI   72.6 µM
1          COc1ccc(/C=C/C(C(=O)O)C(=O)O)cc1          TGI  > 100 µM
2  c1ccc2nn(C3CCCCO3)nc2c1 (stereo unspecified)          TGI  > 100 µM
3  O=C1C(CN2CCCC2)CCCC1CN1CCCC1 (stereo unspecified)          TGI   32.4 µM
4  O=C1CC(Cl)c2c(Cl)sc(Cl)c21 (stereo unspecified)          TGI   5.09 µM

# return TGI for each item in the list
1. CC(C)(CN1CCCCC1)C(=O)/C=C/c1c(Cl)cccc1Cl
2. Cc1ccc(Nc2ccc(Nc3ccc(C)cc3S(=O)(=O)O)c3c2C(=O)c2ccccc2C3=O)c(S(=O)(=O)O)c1
3. Cc1ccc(N(C(=O)CC(=O)N2N=C(c3ccccc3)C(N=Nc3ccc([N+](=O)[O-])cc3)C2=O)C(=O)c2ccc(Cl)cc2)cc1 (stereo unspecified)
4. CC(CC(C)(C)[N+](C)(C)C)[N+](C)(C)C (stereo unspecified)
5. CC(CN(C)C)C(=O)/C=C/c1ccc(Cl)c(Cl)c1 (stereo unspecified)

1.13 µM
> 100 µM
45.9 µM
> 100 µM
3.73 µM

I'm hoping you can list TGI for every compound here, please.
1. CN(C)/C=N/S(=O)(=O)c1nn2c(C=O)c(-c3cc4ccccc4oc3=O)nc2s1
2. COc1cnnc2c(C)c(-c3ccccc3)nn12
3. O=c1c2cccnc2ncn1CCCN1CCOCC1

["25.1 µM", "> 100 µM", "> 100 µM"]

Below is a list of compounds. For each, state its recorded TGI.
1. O=C(O/N=C1/CCCC/C1=C\c1ccccc1)c1ccc(Cl)cc1
2. CC(C)(C)n1cc(-c2ccnc(NCCNS(=O)(=O)c3cccc4ccccc34)c2)c(-c2cccc(F)c2)n1
3. Cc1ccc(-n2c(-c3ccc(Cl)cc3)cs/c2=N\NC(=O)COc2n[nH]c(=O)c3ccccc23)cc1
4. CC(=O)OC1=C2C(CC3C4CC=C5CC(OC(C)=O)CCC5(C)C4CCC23C)C2C(=O)N(Cc3ccccc3)C(=O)C2C1 (stereo unspecified)
5. Cc1ccc(C2(c3ccc(C)c(O)c3C)CCN(C)CC2)c(C)c1O
6. Cc1[nH]nc(C(=O)Nc2n[nH]c3ccccc23)c1[N+](=O)[O-]
7. CC(C)(C)C(=O)OCC(COC(=O)C(C)(C)C)[N+](=O)[O-]

["> 100 µM", "64.3 µM", "> 100 µM", "> 100 µM", "> 100 µM", "> 100 µM", "> 100 µM"]

Return value of TGI for input CCCN1C(=O)/C(=C(/O)C(=O)OCC)C(c2ccc(OC)c(OC)c2)C1=O (stereo unspecified) , no commentary. > 100 µM
